# Experimental target: human RXFP1 (Homo sapiens, UniProt Q9HBX9)
# Sequence (Q9HBX9 whole entry): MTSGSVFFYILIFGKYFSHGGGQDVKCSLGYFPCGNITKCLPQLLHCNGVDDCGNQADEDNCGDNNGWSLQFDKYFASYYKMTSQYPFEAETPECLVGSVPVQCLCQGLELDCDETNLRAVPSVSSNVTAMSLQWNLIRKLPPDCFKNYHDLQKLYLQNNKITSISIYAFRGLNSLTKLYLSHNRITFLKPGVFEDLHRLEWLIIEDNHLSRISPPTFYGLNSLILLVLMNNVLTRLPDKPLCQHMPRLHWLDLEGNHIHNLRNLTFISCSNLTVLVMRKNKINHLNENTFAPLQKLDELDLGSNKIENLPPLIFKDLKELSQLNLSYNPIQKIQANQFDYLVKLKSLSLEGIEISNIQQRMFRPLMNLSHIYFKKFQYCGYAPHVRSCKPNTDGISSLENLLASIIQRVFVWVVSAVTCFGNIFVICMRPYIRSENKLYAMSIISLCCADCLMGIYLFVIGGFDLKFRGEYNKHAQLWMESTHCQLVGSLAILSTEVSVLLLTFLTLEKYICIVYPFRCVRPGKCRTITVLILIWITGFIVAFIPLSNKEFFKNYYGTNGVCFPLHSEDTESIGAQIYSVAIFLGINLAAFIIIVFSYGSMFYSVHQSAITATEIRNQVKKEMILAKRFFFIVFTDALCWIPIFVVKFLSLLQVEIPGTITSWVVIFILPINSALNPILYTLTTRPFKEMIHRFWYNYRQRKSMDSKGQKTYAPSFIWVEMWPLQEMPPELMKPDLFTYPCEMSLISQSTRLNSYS
# Test description: RXFP1 Hu cAMP (Test A)
# Type: cell-based
# Design: expressed in transfected cells; host or cells: Jump-In T-REx CHO-K1 cells (ThermoFisher), induced with 10 ng/ml doxycycline for 24 h
# Condition description: RXFP1 Hu cAMP; read-out: Test A EC50
pEC50: −log10 of the molar value.
Value kind: pEC50

Molecule	Censoring qualifier	Numeric result
COc1cc(F)c(O[C@H]2CC[C@@](C)(C(=O)O)CC2)cc1C(=O)N[C@@H]1[C@H]2CC[C@H](C2)[C@@H]1C(=O)NC1CCCC1	=	6.59
COc1cc(F)c(O[C@H]2CC[C@@](C)(C(=O)O)CC2)cc1C(=O)N[C@@H]1[C@H]2CC[C@H](C2)[C@@H]1C(=O)NCC1(C#N)CCC1	=	6.24
COc1cc(F)c(-c2ccc(CC(=O)O)cc2)cc1C(=O)N[C@@H]1CCC[C@@H]1C(=O)Nc1cccc(S(=O)(=O)C(F)(F)F)c1	=	6.34
COc1cc(F)c(C2=CCC(C(=O)O)CC2)cc1C(=O)N[C@@H]1[C@H]2CC[C@H](C2)[C@@H]1C(=O)Nc1cccc(S(=O)(=O)C(F)(F)F)c1 (mixture of isomers)	<	6.46
COc1cc(C#N)c(O[C@H]2CC[C@@](C)(C(=O)O)CC2)cc1C(=O)N[C@@H]1[C@H]2CC[C@H](C2)[C@@H]1C(=O)N[C@@H](C)C(C)(C)C	=	6.25
COc1cc(F)c(-c2ccc(C(=O)O)c(F)c2)cc1C(=O)N[C@@H]1[C@H]2CC[C@H](C2)[C@@H]1C(=O)Nc1cccc(S(=O)(=O)C(F)(F)F)c1	=	6.68

====

# Experimental target: human RXFP1 (Homo sapiens)
# Test description: RXFP1 Hu cAMP (Test A)
# Format: cell-based
# Parameters: expressed in transfected cells; host or cells: Jump-In T-REx CHO-K1 cells (ThermoFisher), induced with 10 ng/ml doxycycline for 24 h
# Condition description: RXFP1 Hu cAMP
# Test A Sinf per record follows

Compound	Test A Sinf
COc1cc(F)c(-c2ccc(C(=O)O)cc2)cc1C(=O)N[C@H]1[C@@H](C(=O)N[C@@H]2CCCN(S(=O)(=O)C(F)(F)F)C2)[C@@H]2C=C[C@H]1C2 (racemic) [Example 312]	50%
COc1cc(F)c(O[C@H]2CC[C@@H](C(=O)O)CC2)cc1C(=O)N[C@@H]1[C@H]2CC[C@H](C2)[C@@H]1C(=O)Nc1ccccc1 [Example 201]	98%
COc1cc(F)c(O[C@H]2CC[C@@](CO)(C(=O)O)CC2)cc1C(=O)N[C@@H]1[C@H]2CC[C@H](C2)[C@@H]1C(=O)NCC1(C(F)(F)F)CCC1 [Example 365]	113%

====

# Test description: Rat Hepatocyte Stability (Test E)
# Format: in vitro ADME
# Condition description: rat, hepatocytes, geometric mean if run multiple times
Value kind: hepatocyte CLint (µL/min/1e6 cells)

> print(dat)
                                   compound        value.kind        value.unit  numeric.result
1  COc1cc(F)c(-c2ncc(CCC(=O)O)s2)cc1C(=O)N[C@@H]1[C@H]2CC[C@H](C2)[C@@H]1C(=O)Nc1cccc(S(=O)(=O)C(F)(F)F)c1  hepatocyte CLint  µL/min/1e6 cells             110
2  COc1cc(F)c(O[C@H]2CC[C@@](C)(C(=O)O)CC2)cc1C(=O)N[C@@H]1CCC[C@@H]1C(=O)NCC1(C)CCCCC1  hepatocyte CLint  µL/min/1e6 cells              67
3  COc1cc(F)c(O[C@H]2CC[C@@](C)(C(=O)O)CC2)cc1C(=O)N[C@@H]1CCC[C@@H]1C(=O)NCC(C)C  hepatocyte CLint  µL/min/1e6 cells              12
4  CC1(CNC(=O)[C@H]2[C@@H]3CC[C@@H](C3)[C@H]2NC(=O)c2cc(O[C@H]3CC[C@@](C)(C(=O)O)CC3)c(Cl)cc2F)CCC1  hepatocyte CLint  µL/min/1e6 cells              20
5  CCc1cc(OC)c(C(=O)N[C@@H]2[C@H]3CC[C@H](C3)[C@@H]2C(=O)NCC2(C)CCC2)cc1O[C@H]1CC[C@@](C)(C(=O)O)CC1  hepatocyte CLint  µL/min/1e6 cells              28
6  COc1cc(F)c(O[C@H]2CC[C@@](C)(C(=O)O)CC2)cc1C(=O)NC1CCOCC1C(=O)Nc1cccc(S(=O)(=O)C(F)(F)F)c1 (single isomer, unassigned)  hepatocyte CLint  µL/min/1e6 cells              13

====

# Experimental target: human RXFP1 (Homo sapiens)
# Test description: RXFP1 Hu cAMP (Test A)
# Assay type: cell-based
# Set-up: expressed in transfected cells; host or cells: Jump-In T-REx CHO-K1 cells (ThermoFisher), induced with 10 ng/ml doxycycline for 24 h
# Condition description: RXFP1 Hu cAMP
Value kind: Test A Sinf (%)

> print(dat)
                                   compound  value.unit  numeric.result
1  COc1cc(F)c(O[C@H]2CC[C@@](C)(C(=O)O)CC2)cc1C(=O)N[C@@H]1[C@H]2CC[C@H](C2)[C@@H]1C(=O)NCC(C)(C)CO           %             119
2  COc1cc(F)c(O[C@H]2CC[C@@](C)(C(=O)O)CC2)cc1C(=O)N[C@@H]1[C@H]2CC[C@H](C2)[C@@H]1C(=O)NC12CC(F)(C1)C2           %             115
3  COc1cc(F)c(O[C@H]2CC[C@@H](C(=O)O)CC2)cc1C(=O)N[C@@H]1[C@H]2CC[C@H](C2)[C@@H]1C(=O)NC1CCCCC1           %             100
4  COc1cc(F)c(O[C@@H]2C[C@@H]3[C@H](C2)[C@H]3C(=O)O)cc1C(=O)N[C@@H]1[C@H]2CC[C@H](C2)[C@@H]1C(=O)NCC1(C)CCC1 (racemic)           %              78
5  CC1(CNC(=O)C2C3CCC(CC3)C2NC(=O)c2cc(O[C@H]3CC[C@@](C)(C(=O)O)CC3)c(C#N)cc2F)CCC1 (single isomer, unassigned)           %              95
6  COc1cc(F)c(-c2ccc(C(=O)O)cc2)cc1C(=O)Nc1ccccc1C(=O)Nc1cccc(S(=O)(=O)C(F)(F)F)c1           %             117

====

# Test description: Human Liver Microsomal Stability (Test C)
# Type: in vitro ADME
# Condition description: human, liver microsomes
Value kind: microsomal CLint (µL/min/mg)

> print(dat)
                                   molecule  censoring.qualifier  numeric.result
1  COc1cc(F)c(O[C@H]2CC[C@@](C)(C(=O)O)CC2)cc1C(=O)N[C@@H]1[C@H]2CC[C@H](C2)[C@@H]1C(=O)N[C@H](C)C(C)C                    =              12
2  COc1cc(F)c(-c2ccc(C(N)=O)cc2)cc1C(=O)N[C@@H]1[C@H]2CC[C@H](C2)[C@@H]1C(=O)Nc1cccc(S(=O)(=O)C(F)(F)F)c1                    =             110
3  COc1cc(F)c(O[C@H]2CC[C@@H](C(=O)O)CC2)cc1C(=O)NC1=C(C(=O)Nc2ccc(F)c(C(F)(F)F)c2)CCC1                    <               3
4  COc1cc(F)c(O[C@H]2CC[C@@](CO)(C(=O)O)CC2)cc1C(=O)N[C@@H]1[C@H]2CC[C@H](C2)[C@@H]1C(=O)NCC1(C)CCC1                    <             5.1
5  COc1cc(-c2cc(C(=O)N[C@H]3[C@@H](C(=O)Nc4cccc(S(=O)(=O)C(F)(F)F)c4)[C@@H]4C=C[C@H]3C4)c(OC)cc2F)ccc1C(=O)O (racemic)                    =              12

====

# Test description: Human Liver Microsomal Stability (Test C)
# Assay type: in vitro ADME
# Condition description: human, liver microsomes
# microsomal CLint per record follows
Value kind: microsomal CLint (µL/min/mg)

Compound	Value kind	Censoring qualifier	Numeric result
COc1cc(F)c(O[C@H]2CC[C@@H](C(=O)O)CC2)cc1C(=O)N[C@@H]1[C@H]2CC[C@H](C2)[C@@H]1C(=O)Nc1c(F)cccc1F	microsomal CLint	=	7.4
COc1cc(NC(=O)[C@H]2[C@@H]3CC[C@@H](C3)[C@H]2NC(=O)c2cc(O[C@H]3CC[C@@H](C(=O)O)CC3)c(F)cc2OC)cc(C(F)(F)F)c1	microsomal CLint	=	31
COc1cc(C#N)c(O[C@H]2CC[C@@](C)(C(=O)O)CC2)cc1C(=O)N[C@@H]1[C@H]2CC[C@H](C2)[C@@H]1C(=O)NCC1(CO)CCC1	microsomal CLint	<	3
COc1cc(F)c(O[C@H]2CC[C@@](C)(C(=O)O)CC2)cc1C(=O)N[C@@H]1[C@H]2CC[C@H](C2)[C@@H]1C(=O)NCC1(C)CCCCC1	microsomal CLint	=	110
COc1cc(F)c(O[C@H]2CC[C@@H](C(=O)O)CC2)cc1C(=O)N[C@H]1[C@@H](C(=O)Nc2ccc(F)c(C(F)(F)F)c2)[C@H]2CC[C@@H]1O2	microsomal CLint	<	3
COc1cc(C#N)c(O[C@H]2CC[C@@](C)(C(=O)O)CC2)cc1C(=O)N[C@@H]1[C@H]2CC[C@H](C2)[C@@H]1C(=O)NC1(C#N)CC1	microsomal CLint	<	3
COc1cc(F)c(O[C@H]2CC[C@@](C)(C(=O)O)CC2)cc1C(=O)N[C@@H]1[C@H]2CC[C@H](C2)[C@@H]1C(=O)NCC(C)(C)C#N	microsomal CLint	<	3
COc1cc(F)c(C2=CCC(C(=O)O)CC2)cc1C(=O)N[C@@H]1[C@H]2CC[C@H](C2)[C@@H]1C(=O)Nc1cccc(S(=O)(=O)C(F)(F)F)c1 (mixture of isomers)	microsomal CLint	=	32
COc1cc(F)c(-c2cccc(C(=O)O)c2)cc1C(=O)N[C@H]1[C@@H](C(=O)Nc2cccc(S(=O)(=O)C(F)(F)F)c2)[C@@H]2C=C[C@H]1C2 (single isomer, unassigned) [Example 554]	microsomal CLint	<	3
COc1cc(C#N)c(O[C@H]2CC[C@@](C)(C(=O)O)CC2)cc1C(=O)N[C@@H]1[C@H]2CC[C@H](C2)[C@@H]1C(=O)NCC1CCC(C#N)CC1 (stereo partly shown)	microsomal CLint	=	7.9
COc1cc(F)c(O[C@H]2CC[C@@](C)(C(=O)O)CC2)cc1C(=O)N[C@H]1[C@@H](C(=O)NCC2(C)CCC2)[C@@H]2C=C[C@H]1C2	microsomal CLint	=	24
COc1cc(F)c(O[C@H]2CC[C@@H](C(=O)O)CC2)cc1C(=O)N[C@@H]1[C@H]2CC[C@H](C2)[C@@H]1C(=O)Nc1ccc(F)c(C(F)(F)F)c1	microsomal CLint	=	42
COc1cc(F)c(O[C@H]2CC[C@@H](C(=O)O)CC2)cc1C(=O)N[C@@H]1[C@H]2CC[C@H](C2)[C@@H]1C(=O)Nc1cc(C(F)(F)F)ccn1	microsomal CLint	=	18
COc1cc(F)c(Cc2cnn(CC(=O)O)c2)cc1C(=O)N[C@@H]1[C@H]2CC[C@H](C2)[C@@H]1C(=O)Nc1cccc(S(=O)(=O)C(F)(F)F)c1	microsomal CLint	=	10
COc1cc(F)c(O[C@H]2CC[C@@](C)(C(=O)O)CC2)cc1C(=O)N[C@@H]1[C@H]2CC[C@H](C2)[C@@H]1C(=O)NCC1(F)CCOCC1	microsomal CLint	<	3
COc1cc(C#N)c(O[C@H]2CC[C@@](C)(C(=O)O)CC2)cc1C(=O)N[C@@H]1[C@H]2CC[C@H](C2)[C@@H]1C(=O)NCC1(F)CCOCC1	microsomal CLint	<	3
COc1cc(F)c(O[C@H]2CC[C@@H](C(=O)O)CC2)cc1C(=O)N[C@@H]1[C@H]2CC[C@H](C2)[C@@H]1C(=O)NCC1(C)CC1	microsomal CLint	=	12
COc1cc(F)c(-c2ccc(CCC(=O)O)nn2)cc1C(=O)N[C@@H]1[C@H]2CC[C@H](C2)[C@@H]1C(=O)Nc1cccc(S(=O)(=O)C(F)(F)F)c1	microsomal CLint	=	45
COc1cc(F)c(-c2ccn(CCC(=O)O)c(=O)c2)cc1C(=O)N[C@@H]1[C@H]2CC[C@H](C2)[C@@H]1C(=O)Nc1cccc(S(=O)(=O)C(F)(F)F)c1	microsomal CLint	=	43
COc1cc(F)c(-c2ccc(C(=O)O)cc2)cc1C(=O)Nc1ccccc1C(=O)Nc1cccc(S(=O)(=O)C(F)(F)F)c1	microsomal CLint	<	3
COc1cc(C#N)c(O[C@H]2CC[C@@](C)(C(=O)O)CC2)cc1C(=O)N[C@@H]1[C@H]2CC[C@H](C2)[C@@H]1C(=O)NCC1(O)CCCC1	microsomal CLint	<	3
COc1cc(F)c(-c2ccc(C(=O)O)cc2)cc1C(=O)N[C@@H]1[C@H]2CC[C@H](C2)[C@@H]1C(=O)Nc1ccc(S(F)(F)(F)(F)F)cc1	microsomal CLint	<	3
